Tested on: rat fat cells
assay.name: Glucose transport in isolated rat fat cells (insulin-like activity)
Type: cell-based, rat (Wistar)
test.parameters: concentration at 50% of the maximum stimulation achieved by the respective compound; rat fat cells, 2-[3H]-deoxyglucose; read-out: Glucose transport EC50
property.measured: pEC50
Expect pEC50 as a plain number equal to -log10 of the molar concentration.

These recorded examples may help you get a feel for the data.
>  <record.smiles>
N[C@H]1[C@H](O[C@@H]2[C@@H](O)[C@H](O)[C@@H](O)[C@H]3OP(=O)(O)O[C@H]32)O[C@H](CO)[C@@H](O[C@H]2O[C@H](CO[C@H]3O[C@H](COS(=O)(=O)O)[C@@H](O)[C@H](O)[C@@H]3O[C@H]3O[C@H](COS(=O)(=O)O)[C@@H](O)[C@H](O)[C@@H]3O[C@H]3O[C@H](CO)[C@@H](O)[C@H](O)[C@@H]3O)[C@@H](O)[C@H](O)[C@@H]2O)[C@@H]1O

>  <pEC50>
5.30

$$$$
>  <record.smiles>
N[C@H]1[C@@H](O[C@H]2[C@H](O)[C@@H](O)[C@H](O)[C@@H]3OP(=O)(O)O[C@H]23)O[C@H](CO)[C@@H](O[C@H]2O[C@H](CO[PH](=O)O)[C@@H](O)[C@H](O)[C@@H]2O)[C@@H]1O

>  <pEC50>
4.82

$$$$

Field: next compound
Query: Name the recorded pEC50 of the item `NC(=O)OC[C@H]1O[C@H](O[C@@H]2[C@@H](OC[C@H]3O[C@H](O[C@@H]4[C@@H](N)[C@H](O[C@H]5[C@H](O)[C@@H](O)[C@H](OP(=O)(O)O)[C@H](O)[C@@H]5O)O[C@H](CO)[C@H]4O)[C@@H](O)[C@@H](O)[C@@H]3O)O[C@H](COC(N)=O)[C@@H](O)[C@@H]2O)[C@@H](O[C@H]2O[C@H](CO)[C@@H](O)[C@H](O)[C@@H]2O)[C@@H](O)[C@@H]1O` in your answer.
Response: 5.00

Taken from patent US6004938A.
